Assign NADP+ to each entry below.
Test system: P. falciparum 3D7 trophozoites
ASSAY PROCEDURE: Metabolomic fingerprint profiling LC-MS
Type: cell-based, Plasmodium falciparum
EXPERIMENTAL CONTEXT: metabolite NADP+, S2 Table Metabolomics
Answers are plain numbers.

Record excerpt, results attached:
COc1ccccc1CNC(=O)CCn1c(=O)[nH]c2ccccc2c1=O
0.1944
CCN1CCN(Cc2ccc(NC(=O)c3cc4ccc5cccnc5c4[nH]3)cc2)CC1
-0.07599
CCOC(=O)c1c(NC(=O)c2ccccc2)sc2c(O)c(CN(CC)CC)ccc12
0.2915

Could you tell me NADP+ for each of these compounds? They are listed below.
1. CCOC(=O)c1cnc2c(C)cc(C)cc2c1Nc1ccc(OC)c(OC)c1
2. COc1ccc(NC(=O)C2c3ccccc3C(=O)N(CC(C)C)C2c2cccs2)cc1 (stereo not drawn)
3. CCOc1cc2c(cc1OCC)C(c1cc(OC)c(O)cc1Cl)NCC2 (stereo not drawn)
4. COc1ccc(Br)cc1C1Nc2ccc3ccccc3c2C2=C1C(=O)CC(c1ccccc1)C2 (stereo not drawn)

Output:
[-0.3797, -0.01609, 0.5626, 0.1167]
